Examples of molecules with documented IC50 follow.
TARGET_OR_SYSTEM: recombinant human MMP13 catalytic domain (CD) (Homo sapiens, UniProt P45452)
Construct: catalytic domain (CD) construct encompassing residues 20-274 (SWISS-PROT P45452)
PROTOCOL_NOTES: MMP-13 catalytic domain FRET enzyme assay
EXPERIMENTAL_SETUP: recombinant human MMP-13 catalytic domain
QUANTITY: IC50

- MOLECULE: "Cc1nc(C(=O)NCc2ccc(F)c(Cl)c2)cc(C2=NO[C@H]([C@H]3CO[C@H](CO)CO3)C2)n1 [drawing 1069]"
  QUANTITY: "IC50"
  OBSERVED: "10 to 100 nM"
- MOLECULE: "Cc1nc(C(=O)NCc2ccc(F)c(Cl)c2)cc(C2=NO[C@@H]([C@H]3CO[C@H](CO)CO3)C2)n1 [drawing 1070]"
  QUANTITY: "IC50"
  OBSERVED: "> 1000 nM"
- MOLECULE: "Cc1nc(C(=O)NCc2ccc(F)c(F)c2)cc(C2=NO[C@H](c3ccc(=O)n(C)c3)C2)n1"
  QUANTITY: "IC50"
  OBSERVED: "< 10 nM"
- MOLECULE: "COc1cc(CNC(=O)c2cc(C3=NO[C@@H](c4ccc(CO)cc4)C3)nc(C)n2)ccc1F"
  QUANTITY: "IC50"
  OBSERVED: "< 10 nM"
- MOLECULE: "Cc1nc(C(=O)NCc2ccc(F)cc2)cc(C2=NOC(C3CCN(S(C)(=O)=O)CC3)C2)n1 (stereo not shown)"
  QUANTITY: "IC50"
  OBSERVED: "< 10 nM"
- MOLECULE: "COc1cc(CNC(=O)c2cc(C3=NOC(c4ccc(-c5nc(C)no5)nn4)C3)nc(C)n2)ccc1F (stereo not shown)"
  QUANTITY: "IC50"
  OBSERVED: "< 10 nM"
- MOLECULE: "COc1ccc(CNC(=O)c2cc(C3=NO[C@H]([C@H]4CO[C@@H](CO)CO4)C3)nc(C)n2)cc1 [drawing 922]"
  QUANTITY: "IC50"
  OBSERVED: "> 1000 nM"
- MOLECULE: "CNC(=O)Cn1nc(C2CC(c3cc(C(=O)NCc4ccc(F)c(OC)c4)nc(C)n3)=NO2)ccc1=O (stereo not shown)"
  QUANTITY: "IC50"
  OBSERVED: "10 to 100 nM"
- MOLECULE: "COc1cc(CNC(=O)c2cc(C3=NOC([C@H]4CC[C@H](NC(=O)[C@H](C)O)CC4)C3)nc(C)n2)ccc1F (stereo partly shown)"
  QUANTITY: "IC50"
  OBSERVED: "< 10 nM"
- MOLECULE: "CC(=O)N[C@H]1CC[C@H]([C@@H]2CC(c3cc(C(=O)NCc4ccc(F)c(C)c4)nc(C)n3)=NO2)CC1"
  QUANTITY: "IC50"
  OBSERVED: "< 10 nM"
- MOLECULE: "CNC(=O)N1CCC(C2CC(c3cc(C(=O)NCc4ccc(F)c(OC)c4)nc(C)n3)=NO2)CC1 (stereo not shown)"
  QUANTITY: "IC50"
  OBSERVED: "< 10 nM"
- MOLECULE: "COc1cccc(CNC(=O)c2cc(C3=NOC(c4ccc(C(=O)O)cc4)C3)ccn2)c1 (stereo not shown)"
  QUANTITY: "IC50"
  OBSERVED: "< 10 nM"
- MOLECULE: "COc1cc(CNC(=O)c2cc(C3=NOC([C@H]4CC[C@H](NC(=O)NC(CO)CO)CC4)C3)nc(C)n2)ccc1F (stereo partly shown)"
  QUANTITY: "IC50"
  OBSERVED: "10 to 100 nM"
- MOLECULE: "COc1cc(CNC(=O)c2cc(C3=NOC([C@H]4CC[C@H](NC(=O)C(C)(C)O)CC4)C3)nc(C)n2)ccc1F (stereo partly shown)"
  QUANTITY: "IC50"
  OBSERVED: "10 to 100 nM"
- MOLECULE: "COc1cc(CNC(=O)c2cc(C3=NO[C@H](c4ccn(C)c(=O)c4)C3)nc(C)n2)ccc1F"
  QUANTITY: "IC50"
  OBSERVED: "< 10 nM"
- MOLECULE: "COc1cc(CNC(=O)c2cc(C3=NOC(c4ccc(-c5cnco5)cn4)C3)nc(C)n2)ccc1F (stereo not shown)"
  QUANTITY: "IC50"
  OBSERVED: "< 10 nM"
